test-summary: qHTS of pediatric cancer cell lines to identify multiple opportunities for drug repurposing: Primary screen for SJ-GBM2 cells (AID 1347091)
experimental-conditions: SJ-GBM2 viability, CellTiter-Glo luminescence, 48 h; series mostly up to 46 µM
Results filed as inconclusive are left out. The source made the active and inactive calls. Calls come from the whole dose curve; as a rule, active = well fitted cell-killing curve with a large enough effect; inconclusive = small, poorly fitted or top-dose-only effect; inactive = no such curve, though single readings can be large or run the other way.
Possible outcomes: active, inactive

In [3]: df
Out[3]:
                                    compound     class
 0  Cc1cc2c(cc1CC(=O)c1sccc1S(=O)(=O)Nc1onc(C)c1Cl)OCO2  inactive
 1  CC(=O)Oc1ccc(C(=C2CCCCC2)c2ccc(OC(C)=O)cc2)cc1  inactive
 2  CCOc1ccc(NC(=O)CC(C)O)cc1 (centres undefined)  inactive
 3           COc1ccc(C2C(=O)c3ccccc3C2=O)cc1  inactive
 4  CN(C)CC/C=C1/c2ccccc2COc2ccc(CC(=O)O)cc21  inactive
 5  COc1cc(C=C2CCC/C(=C\c3ccc(O)c(OC)c3)C2=O)ccc1O    active
 6     CC(=O)OCC(=O)NCCCOc1cccc(CN2CCCCC2)c1  inactive
 7                Nc1ccc(C(=O)Nc2ccccc2N)cc1    active
 8  OC[C@H]1O[C@@H](n2cnc3c(=S)nc[nH]c32)[C@H](O)[C@@H]1O    active
 9  NC(=O)c1cc[n+](CC2=C(C(=O)[O-])N3C(=O)[C@@H](NC(=O)Cc4cccs4)[C@H]3SC2)cc1  inactive
10               O=C(Nc1ccc(Cl)c(Cl)c1)C1CC1  inactive
11           CC(O)C(=O)O (centres undefined)  inactive
12                    CCC(=O)c1c(O)cc(O)cc1O  inactive
13  CC[N+](CC)(CCNC(=O)C(=O)NCC[N+](CC)(CC)Cc1ccccc1Cl)Cc1ccccc1Cl  inactive
14         CCCN1CCCC[C@H]1C(=O)Nc1c(C)cccc1C  inactive
15                          O=C(O)CCCCC(=O)O  inactive
16           O=c1[nH]c(=O)n([C@H]2CCCO2)cc1F  inactive
17  NCCCC[C@H](N[C@@H](CCc1ccccc1)C(=O)O)C(=O)N1CCC[C@H]1C(=O)O  inactive
18          NC(CS)C(=O)O (centres undefined)  inactive
19  CC1(C)OC[C@@H](COC(=O)CCc2ccc(OC[C@@H](O)CNCCNC(=O)N3CCOCC3)cc2)O1  inactive
20  CC(=O)O[C@]1(C(C)=O)CC[C@H]2[C@@H]3C[C@H](C)C4=CC(=O)CC[C@]4(C)[C@H]3CC[C@@]21C  inactive
21          CC(C)N=C(N)/N=C(\N)Nc1ccc(Cl)cc1  inactive
22                     CN(C)C(=S)SC(=S)N(C)C  inactive
23                              Oc1ccc(O)cc1  inactive

----------
test-summary: qHTS of pediatric cancer cell lines to identify multiple opportunities for drug repurposing: Primary screen for DAOY cells (AID 1347090); note: nearly all actives have a fitted effect of over 55% in size
experimental-conditions: DAOY medulloblastoma viability, CellTiter-Glo luminescence, 48 h; series mostly up to 46 µM
Inconclusive results are not listed. Calls of active or inactive are those of the source. Calls come from the whole dose curve; as a rule, active = well fitted cell-killing curve with a large enough effect; inconclusive = small, poorly fitted or top-dose-only effect; inactive = flat fitted curve, though single readings scatter.
Possible outcomes: 1 (active), -1 (inactive)

In [3]: df
Out[3]:
                                    compound  class
 0       O=C1OCCN1/N=C/c1ccc([N+](=O)[O-])o1     -1
 1  CN1[C@@H]2CC[C@H]1CC(OC(=O)c1c[nH]c3ccccc13)C2 (stereo not given in full)     -1
 2            CCCCOc1ccc(C(=O)CCN2CCCCC2)cc1     -1
 3                   CC(C)COC(=O)c1ccc(N)cc1     -1
 4  C#C[C@]1(O)CC[C@H]2[C@@H]3CCC4=CC(=O)CC[C@@H]4[C@H]3CC[C@@]21C     -1
 5               O=c1c(-c2ccccc2)c1-c1ccccc1      1
 6  COC(=O)[C@@H]1CC2=CC(=O)CC[C@]2(C)[C@@]23O[C@@H]2C[C@@]2(C)[C@@H](CC[C@@]24CCC(=O)O4)[C@H]13     -1
 7           O=c1[nH]c(=O)n([C@H]2CCCO2)cc1F     -1
 8  C[C@]12CCC(=O)C=C1CC[C@H]1[C@@H]3CC[C@](O)(C(=O)CO)[C@@]3(C)C[C@H](O)[C@@]12F     -1
 9  OC[C@H]1O[C@@H](n2cnc3c(=S)nc[nH]c32)[C@H](O)[C@@H]1O      1
10  CCOc1ccc(Cc2nccc3cc(OCC)c(OCC)cc23)cc1OCC      1
11  Cc1c(N(C)CS(=O)(=O)O)c(=O)n(-c2ccccc2)n1C     -1
12          CC(C)NC[C@@H](O)COc1cccc2ccccc12     -1
13               CCCCOc1ccc(OCCCN2CCOCC2)cc1     -1
14  CN(C)CC/C=C1/c2ccccc2COc2ccc(CC(=O)O)cc21     -1
15              CC(C)(C(=O)c1cccnc1)c1cccnc1     -1
16  O=S1(=O)c2cccc3cccc(c23)N1CCCN1CCN(c2ccc(F)cc2)CC1     -1
17  COc1cc2c(cc1OC)[C@@H]1CC(=O)[C@@H](CC(C)C)CN1CC2     -1
18  CN(C(=O)CN(CCO)CC(=O)N(C)C(C)(C)Cc1ccccc1)C(C)(C)Cc1ccccc1     -1
19  CC(Cc1cccc(C(F)(F)F)c1)NCCOC(=O)c1ccccc1 (stereo not given)     -1
20  CN1C(CCl)Nc2cc(Cl)c(S(N)(=O)=O)cc2S1(=O)=O (stereo not given)     -1
21  CC[N+](CC)(CCNC(=O)C(=O)NCC[N+](CC)(CC)Cc1ccccc1Cl)Cc1ccccc1Cl     -1
22  Cc1c(C)n(CCN(C)C)c2ccc(C(=O)OCCN(C)C)cc12     -1
23        Clc1ccc2c(c1)CCc1cccnc1C2=C1CCNCC1     -1
24                  Cc1cc(=O)n(-c2ccccc2)n1C     -1
25  COC(=O)CCc1ccc(OCC(O)CNC(C)C)cc1 (stereo not given)     -1
26        Cc1ccc(Nc2c(F)cccc2Cl)c(CC(=O)O)c1     -1
27  CC1(C)OC[C@@H](COC(=O)CCc2ccc(OC[C@@H](O)CNCCNC(=O)N3CCOCC3)cc2)O1     -1
28  NC(=NCCCCCCN=C(N)/N=C(\N)Nc1ccc(Cl)cc1)/N=C(\N)Nc1ccc(Cl)cc1      1
29          OC(CCN1CCCCC1)(c1ccccc1)c1ccccc1     -1
30          Cc1cccn2c(=O)c(-c3nnn[nH]3)cnc12     -1
31   O=C(OCCOCCO)c1ccccc1Nc1cccc(C(F)(F)F)c1     -1
32     CCCCCCCCCCOCC(O)CN (stereo not given)     -1
33             CCN(CC)CCNC(=O)COc1ccc(Cl)cc1     -1
34  CCOC(=O)OC(C)OC1=C(C(=O)Nc2ccccn2)N(C)S(=O)(=O)c2ccccc21 (stereo not given)     -1
35           Cc1c(C(C)C)c(=O)n(-c2ccccc2)n1C     -1
36                               CCN1CCCC1=O     -1
37                          O=c1ccc2ccccc2o1     -1
38  C[C@]12CCC(=O)C=C1[C@@H]1C[C@@H]1[C@H]1[C@@H]3[C@@H]4C[C@@H]4[C@@]4(CCC(=O)O4)[C@@]3(C)CC[C@@H]12     -1
39  C=C1C(=C/C=C2\CCC[C@]3(C)[C@@H]([C@H](C)/C=C/[C@@H](O)C4CC4)CC[C@@H]23)C[C@@H](O)C[C@@H]1O     -1
40       CC/C(=C(/CC)c1ccc(O)cc1)c1ccc(O)cc1      1
41                     CN(C)C(=S)SC(=S)N(C)C      1
42  CCCCc1nc(Cl)c(CO)n1Cc1ccc(-c2ccccc2-c2nn[nH]n2)cc1     -1
43                     Cc1cc(O)c(C(C)C)cc1Cl     -1
44          CN1CCC(=C2c3ccccc3Sc3ccccc32)CC1     -1
